- STUDY TARGET: UniProt:P48730
- Sequence (P48730 whole entry): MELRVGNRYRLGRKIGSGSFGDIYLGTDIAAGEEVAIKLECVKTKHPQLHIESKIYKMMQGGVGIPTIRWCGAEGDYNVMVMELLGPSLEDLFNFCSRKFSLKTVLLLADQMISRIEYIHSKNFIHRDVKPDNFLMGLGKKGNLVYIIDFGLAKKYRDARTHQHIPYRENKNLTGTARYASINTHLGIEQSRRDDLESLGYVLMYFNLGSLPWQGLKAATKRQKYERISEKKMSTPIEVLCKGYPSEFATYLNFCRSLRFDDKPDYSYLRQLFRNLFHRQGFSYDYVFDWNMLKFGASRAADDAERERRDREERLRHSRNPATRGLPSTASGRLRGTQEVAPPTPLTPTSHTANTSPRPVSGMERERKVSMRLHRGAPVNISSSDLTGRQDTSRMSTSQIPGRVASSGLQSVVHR
- MEASUREMENT NOTES: Whole Cell nBRET CSNK1D Binding Assay
- SETUP CONDITIONS: living CHO cells stably expressing human CSNK1D tagged with nanoluciferase; NanoBret tracer 130 nM; 2 hours at 37 C
# label = Condition met if IC50 < 20 nM else Condition not met

Exercise: # TODO verify IC50 < 20 nM strictly for this compound: Fc1ccc(-c2nn3c(c2-c2ccnc4[nH]ncc24)CCC2(C3)CC2(F)F)cc1 (single isomer, unassigned) [Example 325]
Solution: Condition met

More entries:
Exercise: Hello, I'm reviewing records and need to know if IC50 of Cc1cc(-c2c(-c3ccc(F)cn3)nn3c2COC(C)(C)C3)c2c(C)n[nH]c2n1 [Example 156] is below 20 nM. Could you check?
Solution: Condition not met

Exercise: # TODO verify IC50 < 20 nM strictly for this compound: [2H]C([2H])([2H])C1(C([2H])([2H])[2H])Cn2nc(-c3ccc(F)cn3)c(-c3c(F)c(C)nc4[nH]ncc34)c2CO1 [Example 406]
Solution: Condition not met

Exercise: Lab note: confirm whether the reported IC50 for this compound is below 20 nM, equality not counting. compound: Cc1cc(-c2c(-c3ccc(F)cn3)nn3c2CC2(C3)CC2(F)F)c2cn[nH]c2n1 (single isomer, unassigned) [Example 261]
Solution: Condition not met

Exercise: Check if IC50 falls below 20 nM for [2H]C([2H])([2H])[C@]1(C(F)(F)F)Cn2nc(-c3ccc(F)cn3)c(-c3ccnc4[nH]ncc34)c2CO1 (single isomer, unassigned) [Example 423] .
Solution: Condition not met

Exercise: Here's an entry: Nc1cc(-c2c(-c3ccc(F)cc3)nn3c2C[C@H](F)C3)ccn1 [Example 10] . Is its IC50 below 20 nM?
Solution: Condition met

Exercise: # TODO verify IC50 < 20 nM strictly for this compound: Fc1ccc(-c2nn3c(c2-c2ccnc4[nH]ncc24)CC[C@H]2[C@@H]3C2(F)F)cc1 (stereo in doubt) [Example 355]
Solution: Condition not met

The values you see were collected from patent US20230339970A1.
